# target_entity: SARS-CoV-2 S protein trimer (SARS-CoV-2), P0DTC2
# measurement_protocol: column DC/S-T (format not explained)
# experimental_conditions: remark: other sources report otherwise
test_readout: pKd
Scale note: pKd = -log10(concentration in M).

binder | test_readout | result_number
1-30 (antibody, V domains shown) VH: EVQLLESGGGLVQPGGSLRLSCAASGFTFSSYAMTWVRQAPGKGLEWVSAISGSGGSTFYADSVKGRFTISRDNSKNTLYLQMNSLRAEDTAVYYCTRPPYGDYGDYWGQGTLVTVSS VL: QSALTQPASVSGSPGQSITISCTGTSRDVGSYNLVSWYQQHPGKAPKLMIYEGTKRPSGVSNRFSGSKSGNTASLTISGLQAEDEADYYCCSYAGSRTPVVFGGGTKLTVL | pKd | 3.32
1-4 (antibody, V domains shown) VH: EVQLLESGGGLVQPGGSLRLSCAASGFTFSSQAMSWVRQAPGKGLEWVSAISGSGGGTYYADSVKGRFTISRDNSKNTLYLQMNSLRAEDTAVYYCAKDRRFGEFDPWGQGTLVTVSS VL: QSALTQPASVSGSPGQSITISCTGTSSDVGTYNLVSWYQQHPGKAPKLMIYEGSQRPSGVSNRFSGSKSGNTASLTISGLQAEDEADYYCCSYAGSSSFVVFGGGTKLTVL | pKd | 6.89
1-28 (antibody, V domains shown) VH: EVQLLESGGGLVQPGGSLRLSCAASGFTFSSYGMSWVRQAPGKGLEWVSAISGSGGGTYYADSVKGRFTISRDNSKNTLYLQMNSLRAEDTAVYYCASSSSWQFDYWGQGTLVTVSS VL: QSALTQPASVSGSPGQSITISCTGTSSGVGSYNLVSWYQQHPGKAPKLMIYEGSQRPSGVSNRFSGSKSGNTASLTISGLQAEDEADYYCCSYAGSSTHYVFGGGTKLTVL | pKd | 7.02

Now look at this entry.
Task item: So what does the record say about pKd for 1-3 (antibody, V domains shown) VH: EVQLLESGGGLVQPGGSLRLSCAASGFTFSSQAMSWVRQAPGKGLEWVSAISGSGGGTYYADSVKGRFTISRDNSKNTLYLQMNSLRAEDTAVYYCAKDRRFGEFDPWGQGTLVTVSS VL: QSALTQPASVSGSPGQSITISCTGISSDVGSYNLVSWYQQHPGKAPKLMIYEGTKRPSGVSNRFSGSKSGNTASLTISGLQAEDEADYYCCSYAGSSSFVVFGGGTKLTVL ?
Reply: 5.28

Values from patent US20210395344A1
